meta.source: patent US7595183B2

Tested on: northern shrimp cathepsin L1
assay.remarks: Effects of inhibitors on northern shrimp cathepsin L1, residual activity with Z-Phe-Arg-MCA
Assay type: biochemical, northern shrimp (Pandalus eous)
property: Inhibition of northern shrimp cathepsin L1 (in words)

* CC(C)C[C@H](NC(=O)[C@H]1O[C@@H]1C(=O)O)C(=O)NCCCCN=C(N)N (relative stereo) [E64, L-trans-epoxysuccinyl-leucyl-agmatine] | strongly inhibited
* CC(=O)N[C@@H](CC(C)C)C(=O)N[C@@H](CC(C)C)C(=O)N[C@H](C=O)CCCNC(=N)N | strongly inhibited
